Numbers sourced from patent US20250074911A1.

System: wt-TMD8 diffuse large B-cell lymphoma cells
Test Name: Cell proliferation assay wt-TMD8 (ATPlite, 120 hours)
Format: cell-based
Condition: B-cell; wt-TMD8 cells, 120 hours, ATPlite; read-out: IC50 wt-TMD8
Quantity: IC50

State the recorded IC50 for this entry: Nc1ncc2c3c1c(-c1ccc(C(=O)Nc4cc(C(F)(F)F)ccn4)cc1)nn3[C@@H]1CCC[C@H](C1)NC(=O)COC/C=C\C2 [Example 97b]
< 100 nM

Let us now turn to [2H]C1([2H])/C=C/c2cnc(N)c3c(-c4ccc(C(=O)Nc5cc(C(F)(F)F)ccn5)cc4)nn(c23)[C@@H]2CCC[C@H](C2)NC(=O)CCCC1
< 100 nM

Record: C[C@H]1/C=C/c2cnc(N)c3c(-c4ccc(C(=O)Nc5cc(C(F)(F)F)ccn5)cc4)nn(c23)[C@@H]2CCC[C@H](C2)NC(=O)CCCN1C
< 100 nM
